- System: pupil diameter (mydriasis, anticholinergic side effect)
- Protocol notes: Mydriatic Response in Mice (dose causing 200% increase in pupil size)
- Format: in vivo
- Particulars: mice, intraperitoneal, at peak time
Counter-ions that a name gives are not always drawn.
Recorded measurements of Mydriasis-Dose to cause 200% effect, one per entry

Compound	Mydriasis-Dose to cause 200% effect (mg/kg)
CN(C)CC(O)C(c1ccccc1)c1ccc(Cl)cc1 (centres unmarked) [CH3 CH3 H H Cl]	40
CNCC(O)C(c1ccccc1)c1ccc(F)cc1 (centres unmarked) [H CH3 H H F]	92
CNCC(O)C(c1ccccc1)c1ccccc1 (centres unmarked) [CH3 H H H H HCl, 3-Methylamino-1,1-diphenyl-propan-2-ol]	114
CN(C)CC(O)C(c1ccccc1)c1ccccc1 (centres unmarked) [CH3 CH3 H H H HBr, 3-Dimethylamino-1,1-diphenyl-propan-2-ol]	41
CN(C)CCCN1c2ccccc2CCc2ccccc21 [Imipramine HCl, reference compound]	18
